Target or test system: T1, interleukin-23 receptor (IL-23R), Q5VWK5
T1 chain: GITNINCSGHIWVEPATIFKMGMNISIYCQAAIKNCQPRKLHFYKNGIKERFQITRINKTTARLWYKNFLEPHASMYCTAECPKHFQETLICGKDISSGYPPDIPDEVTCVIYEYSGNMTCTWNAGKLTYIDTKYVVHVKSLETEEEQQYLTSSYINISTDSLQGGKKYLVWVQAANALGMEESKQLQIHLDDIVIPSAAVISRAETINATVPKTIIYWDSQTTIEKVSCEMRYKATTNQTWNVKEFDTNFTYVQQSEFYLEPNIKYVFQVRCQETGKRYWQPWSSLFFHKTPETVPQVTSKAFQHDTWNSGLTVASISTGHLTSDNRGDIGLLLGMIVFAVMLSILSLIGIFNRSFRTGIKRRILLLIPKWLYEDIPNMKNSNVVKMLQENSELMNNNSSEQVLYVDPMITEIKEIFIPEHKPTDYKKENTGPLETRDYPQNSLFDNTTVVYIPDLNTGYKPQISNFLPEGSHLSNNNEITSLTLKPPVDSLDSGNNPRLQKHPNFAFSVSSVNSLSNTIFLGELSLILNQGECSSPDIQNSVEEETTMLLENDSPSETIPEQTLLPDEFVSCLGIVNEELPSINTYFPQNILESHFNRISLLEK
Assay details: cell-based or functional assay
Positions of bridges follow the written chain, without caps; N, C: chain ends. Non-standard residues stand in square brackets, D forms with d. No end group written: not given here. Trp(7-Me) = Cc1cccc2c(C[C@H](N)C(=O)O)c[nH]c12; αMeF = C[C@](N)(Cc1ccccc1)C(=O)O; 3Pal = N[C@@H](Cc1cccnc1)C(=O)O; Lipidated = not defined here; Pen = CC(C)(S)[C@H](N)C(=O)O; Thp = NC1(C(=O)O)CCOCC1; Sar = CNCC(=O)O
Reported metric: PBMC pSTAT3 IC50

# annotated cases, reported PBMC pSTAT3 IC50 shown
Binder	Val
R[Pen]NT[Trp(7-Me)]K(Ac)[Pen][2‑amino‑3‑(4-(2-aminoethoxy)phenyl)propanoic acid][2‑amino‑3‑(5-methoxynaphthalen-2-yl)propanoic acid][Thp]EN[αMeF] (disulfide 2-7 (inferred); ends not checked) [SEQ ID NO: 437]	> 1 nM
[(R)‑3‑carboxy‑2‑(4-(((R)-5-carboxy-5-hydrazineylpentyl)amino)-4-oxobutanamido)‑N,N,N‑trimethylpropan‑1‑aminium][Pen]NT[Trp(7-Me)]K(Ac)[Pen][2‑amino‑3‑(4-(2-aminoethoxy)phenyl)propanoic acid][2‑amino‑3‑(6-hydroxynaphthalen-2-yl)propanoic acid][Thp]EN[3Pal][Sar] (disulfide 2-7 (inferred); ends not checked) [SEQ ID NO: 265]	< 1 nM

Requested field: PBMC pSTAT3 IC50. Item: [Pen]NT[Trp(7-Me)]K(Lipidated)[Pen][2‑amino‑3‑(4-(2-aminoethoxy)phenyl)propanoic acid][2‑amino‑3‑(6-hydroxynaphthalen-2-yl)propanoic acid][Thp]K(Ac)N[3Pal][Sar] (disulfide 1-6 (inferred); ends not checked; also: K5 lipidated lysine, lipid not given here) [SEQ ID NO: 189]
< 1 nM
